molecular target: human KDR protein in HEK-293 cells (Homo sapiens (Human), UniProt P35968); test: KDR Cell Assay (phospho-KDR in HEK-293 cells expressing inducible KDR); format: cell-based; details: pKDR Cell HEK 10% FBS IC50, HEK-293 cells expressing inducible KDR, VEGF stimulated, 10% FBS
Sequence (P35968 20-1356): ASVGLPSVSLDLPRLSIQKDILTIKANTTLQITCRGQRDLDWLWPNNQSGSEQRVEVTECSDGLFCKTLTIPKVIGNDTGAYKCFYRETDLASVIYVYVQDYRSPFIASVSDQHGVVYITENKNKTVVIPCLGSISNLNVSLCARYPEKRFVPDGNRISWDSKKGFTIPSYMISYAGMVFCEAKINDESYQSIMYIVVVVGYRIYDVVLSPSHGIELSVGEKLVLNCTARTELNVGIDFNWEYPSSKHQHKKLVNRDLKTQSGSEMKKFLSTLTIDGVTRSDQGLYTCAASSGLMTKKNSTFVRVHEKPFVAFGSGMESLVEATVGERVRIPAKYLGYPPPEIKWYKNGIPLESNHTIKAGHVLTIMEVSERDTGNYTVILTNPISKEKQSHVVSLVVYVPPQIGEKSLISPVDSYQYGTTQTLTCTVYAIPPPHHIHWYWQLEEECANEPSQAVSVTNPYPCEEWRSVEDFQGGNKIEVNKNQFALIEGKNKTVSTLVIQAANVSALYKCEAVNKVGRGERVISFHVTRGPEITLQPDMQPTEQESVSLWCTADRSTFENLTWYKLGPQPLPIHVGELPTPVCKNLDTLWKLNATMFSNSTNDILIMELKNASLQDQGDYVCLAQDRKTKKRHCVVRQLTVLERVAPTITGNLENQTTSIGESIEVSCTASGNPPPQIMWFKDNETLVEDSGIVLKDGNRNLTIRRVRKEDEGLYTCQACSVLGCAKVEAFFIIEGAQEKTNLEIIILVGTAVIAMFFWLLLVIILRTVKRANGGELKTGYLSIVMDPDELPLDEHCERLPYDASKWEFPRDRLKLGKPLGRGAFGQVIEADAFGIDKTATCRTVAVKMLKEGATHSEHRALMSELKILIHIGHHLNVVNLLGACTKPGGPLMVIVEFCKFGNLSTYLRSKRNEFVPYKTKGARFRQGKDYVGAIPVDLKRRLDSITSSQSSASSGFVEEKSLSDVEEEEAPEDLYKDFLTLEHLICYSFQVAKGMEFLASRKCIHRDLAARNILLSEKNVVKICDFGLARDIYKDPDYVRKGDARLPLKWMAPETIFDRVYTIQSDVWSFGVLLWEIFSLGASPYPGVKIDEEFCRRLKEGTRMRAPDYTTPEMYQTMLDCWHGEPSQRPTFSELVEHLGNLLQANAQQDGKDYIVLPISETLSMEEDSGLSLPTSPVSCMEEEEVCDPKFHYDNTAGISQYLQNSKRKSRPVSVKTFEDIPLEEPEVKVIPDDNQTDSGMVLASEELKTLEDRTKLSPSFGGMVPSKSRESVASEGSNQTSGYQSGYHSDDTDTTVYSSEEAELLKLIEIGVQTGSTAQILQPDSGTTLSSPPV
property.measured: IC50
Form field: result (number plus unit)

Qu. Query: IC50; subject: Cn1cc(-c2cc(-c3ccc(N4CCN([C@@H]5CCCC[C@H]5O)CC4)nc3)c3c(C#N)cnn3c2)cn1 [Example 155]
Ans. 979 nM

Qu. Query: IC50; subject: CC[C@H](CO)NC(=O)N1CCN(c2ccc(-c3cc(-c4cnn(C)c4)cn4ncc(C#N)c34)cn2)CC1 [Example 96]
Ans. 1560 nM

Qu. Query: IC50; subject: Cn1cc(-c2cc(-c3ccc(N4CCN(C(=O)c5ccccn5)CC4)nc3)c3c(C#N)cnn3c2)cn1 [Example 72]
Ans. 99.9 nM

Qu. Query: IC50; subject: Cn1cc(-c2cc(-c3ccc(N4CCN(C(=O)C5CCOCC5)CC4)nc3)c3c(C#N)cnn3c2)cn1 [Example 74]
Ans. 1350 nM

Qu. Query: IC50; subject: Cn1ccc(-c2cc(-c3ccc(N4CCN(C(=O)CC(C)(C)C)CC4)cc3)c3c(C#N)cnn3c2)n1 [Example 309]
Ans. 4780 nM

Qu. Query: IC50; subject: Cn1cc(-c2cc(-c3ccc(N4CCN(C[C@H](O)c5cccc(Cl)c5)CC4)nc3)c3c(C#N)cnn3c2)cn1 [Example 153]
Ans. 164 nM

Qu. Query: IC50; subject: Cn1cc(-c2cc(-c3ccc(N4CCN(C(=O)c5cc(C6CC6)[nH]n5)CC4)nc3)c3c(C#N)cnn3c2)cn1 [Example 370, bis(2,2,2-trifluoroacetate)]
Ans. 29.8 nM

---

Provide the reported IC50 of each item.
target: human KDR protein in HEK-293 cells (Homo sapiens (Human)); assay: KDR Cell Assay (phospho-KDR in HEK-293 cells expressing inducible KDR); type: cell-based; details: pKDR Cell HEK 10% FBS IC50, HEK-293 cells expressing inducible KDR, VEGF stimulated
Structures can show the parent of a compound that is named as a salt.
Write the number in µM without appending the unit.

Qu. Provide value of IC50 for this record tested with human KDR protein in HEK-293 cells (Homo sapiens (Human)): CCN1CCN(c2ccc(-c3cc(-c4cnn(C)c4)cn4ncc(C#N)c34)cn2)CC1
Ans. 1.67

Qu. Provide value of IC50 for this record tested with human KDR protein in HEK-293 cells (Homo sapiens (Human)): Cn1cc(-c2cc(-c3ccc(N4CCN(CCc5ccccn5)CC4)nc3)c3c(C#N)cnn3c2)cn1
Ans. 0.49

Qu. Provide value of IC50 for this record tested with human KDR protein in HEK-293 cells (Homo sapiens (Human)): Cc1cnc(CN2CCN(c3ccc(-c4cc(-c5cnn(C)c5)cn5ncc(C#N)c45)cn3)CC2)cn1
Ans. 1.29

Qu. Provide value of IC50 for this record tested with human KDR protein in HEK-293 cells (Homo sapiens (Human)): COc1cccnc1CN1CCN(c2ccc(-c3cc(-c4cnn(C)c4)cn4ncc(C#N)c34)cn2)CC1 [Example 463, formate]
Ans. 0.678

---

biological target: Kif5b-RET fusion protein in HEK-293 cells (Homo sapiens); assay: cell-based; details: read-out: KIF5B-RET pTYR1062 Cell IC50
Sequence (P07949 29-1114 limits assumed): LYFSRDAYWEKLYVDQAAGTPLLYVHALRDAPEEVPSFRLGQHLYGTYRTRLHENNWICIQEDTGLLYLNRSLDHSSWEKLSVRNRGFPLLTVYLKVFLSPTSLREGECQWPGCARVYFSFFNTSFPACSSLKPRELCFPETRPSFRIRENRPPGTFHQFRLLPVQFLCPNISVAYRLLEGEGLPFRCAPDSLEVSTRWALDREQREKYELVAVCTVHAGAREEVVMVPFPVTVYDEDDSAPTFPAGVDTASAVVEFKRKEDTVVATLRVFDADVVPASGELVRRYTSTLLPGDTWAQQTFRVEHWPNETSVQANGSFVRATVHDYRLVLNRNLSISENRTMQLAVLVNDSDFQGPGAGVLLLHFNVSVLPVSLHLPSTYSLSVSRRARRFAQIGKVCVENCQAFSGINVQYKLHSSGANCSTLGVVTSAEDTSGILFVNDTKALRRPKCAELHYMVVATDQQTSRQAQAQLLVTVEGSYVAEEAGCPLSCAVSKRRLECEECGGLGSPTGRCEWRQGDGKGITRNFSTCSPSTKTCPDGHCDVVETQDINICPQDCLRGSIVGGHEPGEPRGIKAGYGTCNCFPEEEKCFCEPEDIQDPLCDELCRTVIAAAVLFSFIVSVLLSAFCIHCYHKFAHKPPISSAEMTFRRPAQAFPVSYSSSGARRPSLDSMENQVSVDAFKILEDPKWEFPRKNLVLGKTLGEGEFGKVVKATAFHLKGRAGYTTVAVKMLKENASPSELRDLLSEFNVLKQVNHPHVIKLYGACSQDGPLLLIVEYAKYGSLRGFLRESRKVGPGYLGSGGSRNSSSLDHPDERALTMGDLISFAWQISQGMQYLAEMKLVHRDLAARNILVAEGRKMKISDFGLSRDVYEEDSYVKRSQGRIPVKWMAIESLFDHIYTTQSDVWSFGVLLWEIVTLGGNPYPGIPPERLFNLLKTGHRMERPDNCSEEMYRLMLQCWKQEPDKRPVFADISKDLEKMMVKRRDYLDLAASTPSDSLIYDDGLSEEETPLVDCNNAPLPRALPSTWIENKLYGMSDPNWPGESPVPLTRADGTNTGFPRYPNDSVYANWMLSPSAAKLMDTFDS
Structures can show the parent of a compound that is named as a salt.
property.measured: pIC50
The read-out pIC50 is expressed as -log10 of concentration in moles per litre.

Qu. Query: pIC50; subject: Cn1cc(-c2cc(-c3ccc(N4CCN(C(=O)C(C)(C)C)CC4)nc3)c3c(C#N)cnn3c2)cn1 [Example 34, trifluoroacetate]
Ans. 7.21

Qu. Query: pIC50; subject: COCCN(C)C(=O)N1CCN(c2ccc(-c3cc(-c4cnn(C)c4)cn4ncc(C#N)c34)cn2)CC1 [Example 130, 2,2,2-trifluoroacetate]
Ans. 7.48

Qu. Query: pIC50; subject: Cn1cc(-c2cc(-c3ccc(N4CCN(C(=O)CNC(C)(C)C)CC4)nc3)c3c(C#N)cnn3c2)cn1 [Example 22, dihydrochloride]
Ans. 7.65

Qu. Query: pIC50; subject: COCC(=O)N1CCN(c2ccc(-c3cc(-c4cnn(C)c4)cn4ncc(C#N)c34)cn2)CC1 [Example 40, trifluoroacetate]
Ans. 7.95

Qu. Query: pIC50; subject: Cn1cc(-c2cc(-c3ccc(N4CCNCC4)nc3)c3c(Cl)cnn3c2)cn1 [Example 326, dihydrochloride]
Ans. 7.15

Qu. Query: pIC50; subject: Cn1cc(-c2cc(-c3ccc(N4CCC(N)CC4)nc3)c3c(C#N)cnn3c2)cn1 [Example 177, dihydrochloride]
Ans. 7.16
